Where do these numbers come from? They come from patent US20240148821A1.

# System name: protein-protein interaction between Kras and SOS1 (biotin-tagged human Kras loaded with GDP, His-tagged human SOS1) (Homo sapiens (Human), UniProt P01116, G12D)
# Assay method text: Protein-protein interaction inhibition between Kras and SOS1 (KrasG12D-SOS PPI) using AlphaScreen;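 further: kras produced in E. coli, Ni-coupled donor beads and streptavidin acceptor beads, excitation 680 nm with emission detected at 520–620 nm via singlet oxygen transfer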
# Type: biochemical
# Reported conditions: AlphaScreen; biotin-tagged human Kras loaded with GDP, His-tagged human SOS1; read-out: KRAS G12D-SOS PPI IC50
Numbered stars: 1 amine (or outer) side, 2 acyl side, 3 side chain; on linkers, the order of the positions; unused ones are H or OH. Bridge positions count the residues as written; N and C are the ends. Square brackets hold non-standard residues; d marks the D form. Peptide text beside a SMILES is read from it. * marks the point of attachment. hPhe(3,5-F2-4-CF3) = N[C@@H](CCc1cc(F)c(C(F)(F)F)c(F)c1)C(=O)O; hPhe(3-Cl-4-CF3) = N[C@@H](CCc1ccc(C(F)(F)F)c(Cl)c1)C(=O)O; hPhe(3-F,4-CF3) = N[C@@H](CCc1ccc(C(F)(F)F)c(F)c1)C(=O)O; NEtPhe(4-Me) = CCN[C@@H](Cc1ccc(C)cc1)C(=O)O; NMePhe(4-Cl) = CN[C@@H](Cc1ccc(Cl)cc1)C(=O)O; NMedβ3hAla = C[C@H](CC(=O)[*:2])N(C)[*:1]; NMeAla(cPent) = CN[C@@H](CC1CCCC1)C(=O)O; NMeGly(cPent) = CN[C@H](C(=O)O)C1CCCC1; Phe(3-I) = N[C@@H](Cc1cccc(I)c1)C(=O)O; mXylylene = c1cc(C[*:1])cc(C[*:2])c1; NMe3Pal = CN[C@@H](Cc1cccnc1)C(=O)O; NMeCha = CN[C@@H](CC1CCCCC1)C(=O)O; X124 = O=C([C@H]1COCCN1[*:1])[*:2]; Hyp = O=C(O)[C@@H]1C[C@@H](O)CN1; NMeChg = CN[C@H](C(=O)O)C1CCCCC1; NMeF = CN[C@@H](Cc1ccccc1)C(=O)O; NMeD = CN[C@@H](CC(=O)O)C(=O)O; NMeL = CN[C@@H](CC(C)C)C(=O)O; NMeNva = CCC[C@H](NC)C(=O)O; NMeV = CN[C@H](C(=O)O)C(C)C; d(β3hA) = C[C@@H](N)CC(=O)O; NMeS = CN[C@@H](CO)C(=O)O; NMeA = CN[C@@H](C)C(=O)O; Piperidide = C1CCN(*)CC1; Pyrrolidide = C1CCN(*)C1; Ac5c = NC1(C(=O)O)CCCC1; Aze = O=C(O)[C@@H]1CCN1; Ac4c = NC1(C(=O)O)CCC1; Sar = CNCC(=O)O
Outcome measure: IC50 (nM)

compound="CC[C@H](C)[C@@H]1NC(=O)[C@H](CC(C)C)N(C)C(=O)C[C@@H](C(=O)N2CCCCC2)N(C)C(=O)[C@H](C(C)C)N(C)C(=O)C2(CCCC2)NC(=O)[C@@H]2CCCN2C(=O)[C@H](CCc2ccc(C(F)(F)F)c(Cl)c2)NC(=O)CN(C)C(=O)[C@H](CO)N(C)C(=O)[C@@H]2CCN2C(=O)[C@H](C)N(C)C1=O [Compound 1721] ([NMeL]I[NMeA][Aze][NMeS][Sar][hPhe(3-Cl-4-CF3)]P[Ac5c][NMeV][NMeD]-Piperidide; lactam N-11)" outcome_measure=IC50 recorded_result=22
compound="CC[C@H](C)[C@@H]1NC(=O)[C@H](CC(C)C)N(C)C(=O)C[C@@H](C)NC(=O)[C@H](C(C)C)N(C)C(=O)C2(CCCC2)NC(=O)[C@@H]2CCCN2C(=O)[C@H](CCc2ccc(C(F)(F)F)c(Cl)c2)NC(=O)CN(C)C(=O)[C@H](CC2CCCCC2)N(C)C(=O)[C@@H]2CCN2C(=O)[C@@H]2CCN2C1=O [Compound 181] (cyclo([Ac5c][NMeV][d(β3hA)][NMeL]I[Aze][Aze][NMeCha][Sar][hPhe(3-Cl-4-CF3)]P))" outcome_measure=IC50 recorded_result=130
compound=CC[C@H](C)[C@@H]1NC(=O)[C@H](CC(C)C)N(C)C(=O)C[C@@H](C(=O)N2CCCCC2)N(C)C(=O)[C@H](CC(C)C)NC(=O)C(C)(C)N(C)C(=O)[C@H](COc2ccccc2)NC(=O)[C@H](Cc2cccc(I)c2)NC(=O)CN(C)C(=O)[C@H](Cc2ccc(C)cc2)N(C)C(=O)[C@@H]2CCN2C(=O)CN(C)C1=O outcome_measure=IC50 recorded_result=110
compound="CCC[C@H]1C(=O)N[C@@H]([C@@H](C)CC)C(=O)N(C)CC(=O)N(C)CC(=O)N(C)[C@@H](CC2CCCC2)C(=O)N(C)CC(=O)N[C@@H](CCc2ccc(C(F)(F)F)c(Cl)c2)C(=O)N(C)[C@@H](Cc2cccnc2)C(=O)NC2(CCCC2)C(=O)N(C)[C@@H](C2CCCCC2)C(=O)N(C)[C@H](C(=O)N2CCCC2)CC(=O)N1C [Compound 1946] ([NMeNva]I[Sar][Sar][NMeAla(cPent)][Sar][hPhe(3-Cl-4-CF3)][NMe3Pal][Ac5c][NMeChg][NMeD]-Pyrrolidide; lactam N-11)" outcome_measure=IC50 recorded_result=1.5
compound="CC[C@H](C)[C@@H]1NC(=O)[C@H](CC(C)C)N(C)C(=O)C[C@@H](C(=O)N(C)C)N(C)C(=O)[C@H](C2CCCC2)N(C)C(=O)C2(CCCC2)NC(=O)[C@@H]2CCCN2C(=O)[C@H](CCc2cc(F)c(C(F)(F)F)c(F)c2)NC(=O)CN(C)C(=O)[C@H](CC2CCCCC2)N(C)C(=O)[C@@H]2CCN2C(=O)[C@H](C)N(C)C1=O [Compound 1170] ([NMeL]I[NMeA][Aze][NMeCha][Sar][hPhe(3,5-F2-4-CF3)]P[Ac5c][NMeGly(cPent)][NMeD]-NMe2; lactam N-11)" outcome_measure=IC50 recorded_result=0.54
compound="CCO[C@@H]1C[C@H]2C(=O)NC3(CCC3)C(=O)N(C)[C@@H](C3CCCCC3)C(=O)N(C)[C@H](C)CC(=O)N(C)[C@@H](CC(C)C)C(=O)N[C@@H]([C@@H](C)CC)C(=O)N(C)[C@@H](C)C(=O)N3CC[C@H]3C(=O)N(CC)[C@@H](Cc3ccc(C)cc3)C(=O)N(C)CC(=O)N[C@@H](CCc3cc(F)c(C(F)(F)F)c(F)c3)C(=O)N2C1 [Compound 724] (cyclo([Ac4c][NMeChg][NMedβ3hAla][NMeL]I[NMeA][Aze][NEtPhe(4-Me)][Sar][hPhe(3,5-F2-4-CF3)][Hyp](Et)))" outcome_measure=IC50 recorded_result=24
compound="CC[C@H](C)[C@@H]1NC(=O)[C@H](CC(C)C)N(C)C(=O)C[C@@H](C(=O)N2CCCCC2)N(C)C(=O)[C@H](CC(C)C)N(C)C(=O)C2(CCCC2)NC(=O)[C@@H]2C[C@@H](OCc3cccc(C)c3)CN2C(=O)[C@H](CCc2ccc(C(F)(F)F)c(F)c2)NC(=O)CN(C)C(=O)[C@H](CC2CCCCC2)N(C)C(=O)CN(C)C(=O)CN(C)C1=O [Compound 2125] ([NMeL]I[Sar][Sar][NMeCha][Sar][hPhe(3-F,4-CF3)][Hyp](mXylylene)[Ac5c][NMeL][NMeD]-Piperidide; lactam N-11)" outcome_measure=IC50 recorded_result=16
compound="CC[C@H](C)[C@@H]1NC(=O)[C@H](CC(C)C)N(C)C(=O)C[C@@H](C(=O)N2CCCCC2)N(C)C(=O)[C@H](C2CCCCC2)N(C)C(=O)C2(CCCC2)NC(=O)[C@H]2COCCN2C(=O)[C@H](CCc2ccc(C(F)(F)F)c(Cl)c2)NC(=O)CN(C)C(=O)[C@H](CC2CCCCC2)N(C)C(=O)CN(C)C(=O)CN(C)C1=O [Compound 1445] ([NMeL]I[Sar][Sar][NMeCha][Sar][hPhe(3-Cl-4-CF3)][X124][Ac5c][NMeChg][NMeD]-Piperidide; lactam N-11)" outcome_measure=IC50 recorded_result=250
compound="CC[C@H](C)[C@@H]1NC(=O)[C@H](C)N(C)C(=O)C[C@@H](C)NC(=O)[C@H](CC(C)C)N(C)C(=O)[C@H](Cc2ccccc2)N(C)C(=O)[C@H](CC(C)C)NC(=O)[C@H](Cc2cccc(I)c2)NC(=O)CN(C)C(=O)[C@H](Cc2ccc(Cl)cc2)N(C)C(=O)CN(C)C(=O)CN(C)C1=O [Compound 65] (cyclo(I[Sar][Sar][NMePhe(4-Cl)][Sar][Phe(3-I)]L[NMeF][NMeL][d(β3hA)][NMeA]))" outcome_measure=IC50 recorded_result=240
